assay comment: Pharmacokinetic assay in mice, plasma concentration by LC-MS/MS
Type: in vivo, CD-1 male mice
condition description: male, CD-1, mouse, PO, 10 mg/kg
quantity measured: Cmax

[
  {
    "compound": "[O-][S+]1CCc2nc(N3Cc4ccc(Cl)cc4C3)nc(NC3(CO)CCC3)c21 (racemic) [Compound 25]",
    "observed result": "5950 ng/mL"
  },
  {
    "compound": "[O-][S+]1CCc2nc(N3CCC(c4ncc(Cl)cn4)CC3)nc(NC3(CO)CCC3)c21 (centres unmarked) [Control 1, reference compound]",
    "observed result": "2250 ng/mL"
  }
]

These measurements were taken from patent US20260242393A1.
